- TARGET DESC: T1, HLA-A*02:01 class I complex (conditional p*HLA*02:01, biotinylated heavy chain with beta2-microglobulin) (human, biotinylated heavy chain)
- T1 construct: UV-labile peptide p* is cleaved and exchanged for the test peptide; also called HLA 2.1
- PROCEDURE TEXT: UV peptide exchange, HLA class I ELISA, % of Pos peptide;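 also: Streptavidin-captured HLA complexes after exchange detected via HRP anti-human B2M antibody, absorbance read, colour scales with intact complex, normalized to exchange control peptide as 100%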
Output yes (1) for Exch II (%) not less than 30%; output no (0) otherwise.

| BINDER | CLASS LABEL |
| --- | --- |
| LVVVGAAGV (also called M050) [KRAS.G12A mutant peptide LVVVGAAGV] | no (0) |
| GLAPPQYLV (also called M151) [TP53_H193Y5 mimic peptide GLAPPQYLV] | yes (1) |
| LMVVGAVGV (also called M072) [KRAS_G12V3 mimic peptide LMVVGAVGV] | yes (1) |
| LLVVGAAGV (also called M051) [KRAS_G12A2 mimic peptide LLVVGAAGV] | yes (1) |
| MMFSKRHWI (also called M011) [CIC_R215W15 mimic peptide MMFSKRHWI] | yes (1) |
| SVTCTYFPA (also called M210) [TP53.S127F mutant peptide SVTCTYFPA] | no (0) |
| ILNREIDFV (also called M091) [PIK3CA_G118D5 mimic peptide ILNREIDFV] | yes (1) |
| CYLYYYSYLL (also called M101) [PTEN R173C2 mimic peptide CYLYYYSYLL] | no (0) |
| LMVVGACGV (also called M062) [KRAS_G12C3 mimic peptide LMVVGACGV] | yes (1) |
| LLGRNSFEM (also called M220) [TP53.V272M mutant peptide LLGRNSFEM] | yes (1) |
| RMIHRDLAL (also called M241; ERBB2_V842110) [ERBB2_V842I10 mimic peptide RMIHRDLAL] | yes (1) |
| YLDCGIHSG (also called M020) [CTNNB1.S33C mutant peptide YLDCGIHSG] | yes (1) |
